# Assayed system: AAGAB (UniProt Q6PD74)
# Sequence (Q6PD74 whole entry, looked up): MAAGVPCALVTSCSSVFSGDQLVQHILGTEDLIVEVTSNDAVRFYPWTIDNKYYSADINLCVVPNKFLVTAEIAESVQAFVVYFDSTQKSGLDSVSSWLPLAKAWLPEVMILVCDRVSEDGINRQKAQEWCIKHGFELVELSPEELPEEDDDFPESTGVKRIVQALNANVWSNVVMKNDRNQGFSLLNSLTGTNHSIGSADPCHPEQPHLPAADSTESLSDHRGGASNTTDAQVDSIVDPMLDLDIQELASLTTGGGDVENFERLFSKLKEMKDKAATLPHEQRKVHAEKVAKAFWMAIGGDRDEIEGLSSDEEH
# Test protocol: log2 fold change, soluble protein after heating vs DMSO (PISA); higher = thermal stabilisation; K562 cells, 10 uM, 30 min; active = over 0.2 and 3.5 SD of the protein, either way, in both replicates (recomputed)
About 7,900 targets were measured; listed, in parts, are those with a hit and a random draw of the rest. About 0.6% of all pairs of compound and target were hits.
Answer with one of the outcomes active, inactive

Cc1cccc(CC(=O)N2CCc3c2ccc(-c2cn(C)c4ncnc(N)c24)c3F)n1	inactive
NC(=O)c1ccc2nc(-c3ccc(Oc4ccc(Cl)cc4)cc3)[nH]c2c1	inactive
CC[C@@H]1C(=O)N(C)c2cnc(Nc3ccc(C(=O)N[C@H]4CC[C@H](N5CCN(CC6CC6)CC5)CC4)cc3OC)nc2N1C(C)C	active
COc1cc(C(=O)O)ccc1NC(=O)[C@@H]1N[C@@H](CC(C)(C)C)[C@](C#N)(c2ccc(Cl)cc2F)[C@H]1c1cccc(Cl)c1F	inactive

Attention now turns to another entry.
Per the assay record, what outcome was assigned to `O=C(Nc1nc2ccccc2n1CCN1CCOCC1)c1cccc([N+](=O)[O-])c1` ?
inactive
